- SYSTEM UNDER TEST: HDAC1 enzyme (Homo sapiens)
- Construct: Amplification of human HDAC1 coding region from this cDNA library was cloned separately into the baculovirus expression pDEST20 vector
- PROCEDURE TEXT: In vitro HDAC assay for determination of IC50 values (BIOMOL fluorescent-based HDAC activity assay)
- STATED CONDITIONS: recombinant GST-HDAC1, 500 uM Flur de lys substrate, room temperature 2 h; read-out: IC50 (HDAC 1)
Classification scheme (IC50): bottom end (below 40 nM), midrange (40 nM to below 200 nM), top end (200 nM or more)

MOL SMILES | SYSTEM UNDER TEST | LABEL CLASS
CN(Cc1c(C(C)(C)C)nc2cc(/C=C/C(=O)NO)ccn12)CC(C)(C)C | HDAC1 enzyme (Homo sapiens) | top end
CCCCN(CCCC)Cc1c(C)nc2cc(/C=C/C(=O)NO)ccn12 | HDAC1 enzyme (Homo sapiens) | midrange
CN(CCC(C)(C)C)Cc1c(C(C)(C)C)nc2cc(C=CC(=O)NO)ccn12 | HDAC1 enzyme (Homo sapiens) | top end
CCCCc1nc2cc(C=CC(=O)NO)ccn2c1CN(CC)CCCC | HDAC1 enzyme (Homo sapiens) | midrange
CCC(CC)CN(CC)Cc1c(C(C)(C)C)nc2cc(C=CC(=O)NO)ccn12 | HDAC1 enzyme (Homo sapiens) | midrange
CCc1nc2cc(C=CC(=O)NO)ccn2c1CN(CC)CCC(C)C | HDAC1 enzyme (Homo sapiens) | bottom end
CCN(Cc1c(C(C)(C)C)nc2cc(C=CC(=O)NO)ccn12)CC1CCCCC1 | HDAC1 enzyme (Homo sapiens) | midrange
CCCc1nc2cc(C=CC(=O)NO)ccn2c1CN(CC)CCC(C)(C)C | HDAC1 enzyme (Homo sapiens) | bottom end
CCN(CCC(C)C)Cc1c(C(C)(C)C)nc2cc(C=CC(=O)NO)ccn12 | HDAC1 enzyme (Homo sapiens) | midrange
CCCCCc1nc2cc(C=CC(=O)NO)ccn2c1CN(CC)CCC(C)(C)C | HDAC1 enzyme (Homo sapiens) | bottom end
CCCCCCN(CC)Cc1c(C(C)(C)C)nc2cc(C=CC(=O)NO)ccn12 | HDAC1 enzyme (Homo sapiens) | top end
CCCN(Cc1c(C(C)(C)C)nc2cc(C=CC(=O)NO)ccn12)C(C)C | HDAC1 enzyme (Homo sapiens) | top end
CCCCc1nc2cc(C=CC(=O)NO)ccn2c1CN(CCC)CCCC | HDAC1 enzyme (Homo sapiens) | midrange
CCCCc1nc2cc(C=CC(=O)NO)ccn2c1CNC(C)(C)C | HDAC1 enzyme (Homo sapiens) | bottom end

----------
Reported pIC50 is given for each of the following compounds.
- SYSTEM UNDER TEST: HDAC1 enzyme (Homo sapiens)
- Construct: Amplification of human HDAC1 coding region from this cDNA library was cloned separately into the baculovirus expression pDEST20 vector
- PROCEDURE TEXT: In vitro HDAC assay for determination of IC50 values (BIOMOL fluorescent-based HDAC activity assay)
- STATED CONDITIONS: recombinant GST-HDAC1, 500 uM Flur de lys substrate, room temperature 2 h; read-out: IC50 (HDAC 1)
pIC50: −log10 of the molar value.

MOL SMILES | pIC50
CCCCN(CC)Cc1c(CCC)nc2cc(C=CC(=O)NO)ccn12 | 7.40
CCNCc1c(C(C)(C)C)nc2cc(C=CC(=O)NO)ccn12 | 7.22
CCC(CC)NCc1c(C(C)(C)C)nc2cc(C=CC(=O)NO)ccn12 | 6.80
CCCCCc1nc2cc(C=CC(=O)NO)ccn2c1CN(CC)CCCC | 7.40
CCCCc1nc2cc(C=CC(=O)NO)ccn2c1CN(CC)CC(CC)CC | 6.82

----------
- SYSTEM UNDER TEST: HDAC1 enzyme (Homo sapiens, UniProt Q13547)
- Construct: Amplification of human HDAC1 coding region from this cDNA library was cloned separately into the baculovirus expression pDEST20 vector
- Sequence (Q13547 whole entry): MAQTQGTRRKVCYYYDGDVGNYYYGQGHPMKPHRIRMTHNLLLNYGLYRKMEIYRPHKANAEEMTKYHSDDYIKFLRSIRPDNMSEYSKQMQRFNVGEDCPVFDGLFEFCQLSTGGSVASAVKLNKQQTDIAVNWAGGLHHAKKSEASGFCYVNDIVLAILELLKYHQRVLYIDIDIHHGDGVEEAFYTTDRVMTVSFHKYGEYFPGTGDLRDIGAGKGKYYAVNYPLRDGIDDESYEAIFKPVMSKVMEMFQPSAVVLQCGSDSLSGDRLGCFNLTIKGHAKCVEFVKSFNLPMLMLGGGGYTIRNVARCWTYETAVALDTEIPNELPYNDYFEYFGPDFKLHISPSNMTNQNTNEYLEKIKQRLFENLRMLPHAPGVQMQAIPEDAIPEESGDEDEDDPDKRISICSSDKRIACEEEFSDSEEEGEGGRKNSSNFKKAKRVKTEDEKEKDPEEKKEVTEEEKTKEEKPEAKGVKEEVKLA
- PROCEDURE TEXT: In vitro HDAC assay for determination of IC50 values (BIOMOL fluorescent-based HDAC activity assay)
- STATED CONDITIONS: recombinant GST-HDAC1, 500 uM Flur de lys substrate, room temperature 2 h; read-out: IC50 (HDAC 1)
Reported IC50 is given for each of the following compounds.

COMPOUND | UNIT OF MEASURE | IC50
CCCCc1nc2cc(C=CC(=O)NO)ccn2c1CN(CC)CCC(C)(C)C [Compound 45] | nM | 30
CCN(CCC(C)(C)C)Cc1c(C(C)(C)C)nc2cc(C=CC(=O)NO)ccn12 [Compound 23] | nM | 70
CCN(CCCSC)Cc1c(C(C)(C)C)nc2cc(C=CC(=O)NO)ccn12 [Compound 26] | nM | 90
CCCCc1nc2cc(C=CC(=O)NO)ccn2c1CN(CC)CC(C)(C)C [Compound 43] | nM | 160
CCN(Cc1c(C(C)(C)C)nc2cc(C=CC(=O)NO)ccn12)CC(C)C [Compound 17] | nM | 570

----------
- SYSTEM UNDER TEST: HDAC1 enzyme (Homo sapiens)
- Construct: Amplification of human HDAC1 coding region from this cDNA library was cloned separately into the baculovirus expression pDEST20 vector
- PROCEDURE TEXT: In vitro HDAC assay for determination of IC50 values (BIOMOL fluorescent-based HDAC activity assay)
- STATED CONDITIONS: recombinant GST-HDAC1, 500 uM Flur de lys substrate, room temperature 2 h; read-out: IC50 (HDAC 1)
pIC50: −log10 of the molar value.

MOL SMILES | pIC50
CCCCc1nc2cc(C=CC(=O)NO)ccn2c1CN(C)C | 7.40
CC(C)(C)NCc1c(C(C)(C)C)nc2cc(C=CC(=O)NO)ccn12 | 6.89
CCCN(CC)Cc1c(C(C)(C)C)nc2cc(C=CC(=O)NO)ccn12 | 6.57
CCCCc1nc2cc(C=CC(=O)NO)ccn2c1CN(CC)CCC(C)C | 7.70
CCCCN(CC)Cc1c(C)nc2cc(C=CC(=O)NO)ccn12 | 7.52

----------
- SYSTEM UNDER TEST: HDAC1 enzyme (Homo sapiens, UniProt Q13547)
- Construct: Amplification of human HDAC1 coding region from this cDNA library was cloned separately into the baculovirus expression pDEST20 vector
- PROCEDURE TEXT: In vitro HDAC assay for determination of IC50 values (BIOMOL fluorescent-based HDAC activity assay)
- STATED CONDITIONS: recombinant GST-HDAC1, 500 uM Flur de lys substrate, room temperature 2 h; read-out: IC50 (HDAC 1)
pIC50: −log10 of the molar value.
Reported pIC50 is given for each of the following molecules.

MOLECULE | SYSTEM UNDER TEST | pIC50
CCCCN(CC)Cc1c(C(C)(C)C)nc2cc(C=CC(=O)NO)ccn12 [Compound 16] | HDAC1 enzyme (Homo sapiens, UniProt Q13547) | 7.22
CCCCN(C)Cc1c(C(C)(C)C)nc2cc(C=CC(=O)NO)ccn12 [Compound 34] | HDAC1 enzyme (Homo sapiens, UniProt Q13547) | 6.66
CC(C)(C)CNCc1c(C(C)(C)C)nc2cc(C=CC(=O)NO)ccn12 [Compound 1] | HDAC1 enzyme (Homo sapiens, UniProt Q13547) | 6.72
CCCN(CC)Cc1c(C)nc2cc(C=CC(=O)NO)ccn12 [Compound 30] | HDAC1 enzyme (Homo sapiens, UniProt Q13547) | 6.27
CCCCc1nc2cc(C=CC(=O)NO)ccn2c1CN(CC)CC [Compound 7] | HDAC1 enzyme (Homo sapiens, UniProt Q13547) | 6.74
CCc1nc2cc(C=CC(=O)NO)ccn2c1CNC(C)(C)C [Compound 62] | HDAC1 enzyme (Homo sapiens, UniProt Q13547) | 7.52
CCCCN(CC)Cc1c(CC)nc2cc(C=CC(=O)NO)ccn12 [Compound 63] | HDAC1 enzyme (Homo sapiens, UniProt Q13547) | 7.30
CCCC(C)CN(CC)Cc1c(C(C)(C)C)nc2cc(C=CC(=O)NO)ccn12 (stereo not drawn) [Compound 22] | HDAC1 enzyme (Homo sapiens, UniProt Q13547) | 6.33
CCN(CCC(C)(C)C)Cc1c(C)nc2cc(C=CC(=O)NO)ccn12 [Compound 50] | HDAC1 enzyme (Homo sapiens, UniProt Q13547) | 7.30

----------
Reported pIC50 is given for each of the following compounds.
- SYSTEM UNDER TEST: HDAC1 enzyme (Homo sapiens, UniProt Q13547)
- Construct: Amplification of human HDAC1 coding region from this cDNA library was cloned separately into the baculovirus expression pDEST20 vector
- PROCEDURE TEXT: In vitro HDAC assay for determination of IC50 values (BIOMOL fluorescent-based HDAC activity assay)
- STATED CONDITIONS: recombinant GST-HDAC1, 500 uM Flur de lys substrate, room temperature 2 h; read-out: IC50 (HDAC 1)
pIC50: −log10 of the molar value.
OUTCOME MEASURE: pIC50

MOL SMILES | OUTCOME MEASURE | RECORDED RESULT
CCCc1nc2cc(C=CC(=O)NO)ccn2c1CNC(C)(C)C | pIC50 | 7.40
CCC(CC)CN(CC)Cc1c(C)nc2cc(C=CC(=O)NO)ccn12 | pIC50 | 8.00
CCN(Cc1c(C(C)(C)C)nc2cc(C=CC(=O)NO)ccn12)CC1CC1 | pIC50 | 6.48
CC(C)CCN(C)Cc1c(C(C)(C)C)nc2cc(C=CC(=O)NO)ccn12 | pIC50 | 6.46
